Target: T1, mouse LTBP1-proTGFβ1 complex (mouse, UniProt Q8CG19 339-1712; P04202 30-390)
T1 construct: Exemplary entries; In the cell assays expressed from mouse LTBP1S and mouse proTGFb1 plasmids in LN229 cells; also called Mo LTBP1-proTGFβ1; MuLTBP1-ProTGFb1
T1 sequence (Q8CG19 339-1712 limits assumed, chain 1 of 2): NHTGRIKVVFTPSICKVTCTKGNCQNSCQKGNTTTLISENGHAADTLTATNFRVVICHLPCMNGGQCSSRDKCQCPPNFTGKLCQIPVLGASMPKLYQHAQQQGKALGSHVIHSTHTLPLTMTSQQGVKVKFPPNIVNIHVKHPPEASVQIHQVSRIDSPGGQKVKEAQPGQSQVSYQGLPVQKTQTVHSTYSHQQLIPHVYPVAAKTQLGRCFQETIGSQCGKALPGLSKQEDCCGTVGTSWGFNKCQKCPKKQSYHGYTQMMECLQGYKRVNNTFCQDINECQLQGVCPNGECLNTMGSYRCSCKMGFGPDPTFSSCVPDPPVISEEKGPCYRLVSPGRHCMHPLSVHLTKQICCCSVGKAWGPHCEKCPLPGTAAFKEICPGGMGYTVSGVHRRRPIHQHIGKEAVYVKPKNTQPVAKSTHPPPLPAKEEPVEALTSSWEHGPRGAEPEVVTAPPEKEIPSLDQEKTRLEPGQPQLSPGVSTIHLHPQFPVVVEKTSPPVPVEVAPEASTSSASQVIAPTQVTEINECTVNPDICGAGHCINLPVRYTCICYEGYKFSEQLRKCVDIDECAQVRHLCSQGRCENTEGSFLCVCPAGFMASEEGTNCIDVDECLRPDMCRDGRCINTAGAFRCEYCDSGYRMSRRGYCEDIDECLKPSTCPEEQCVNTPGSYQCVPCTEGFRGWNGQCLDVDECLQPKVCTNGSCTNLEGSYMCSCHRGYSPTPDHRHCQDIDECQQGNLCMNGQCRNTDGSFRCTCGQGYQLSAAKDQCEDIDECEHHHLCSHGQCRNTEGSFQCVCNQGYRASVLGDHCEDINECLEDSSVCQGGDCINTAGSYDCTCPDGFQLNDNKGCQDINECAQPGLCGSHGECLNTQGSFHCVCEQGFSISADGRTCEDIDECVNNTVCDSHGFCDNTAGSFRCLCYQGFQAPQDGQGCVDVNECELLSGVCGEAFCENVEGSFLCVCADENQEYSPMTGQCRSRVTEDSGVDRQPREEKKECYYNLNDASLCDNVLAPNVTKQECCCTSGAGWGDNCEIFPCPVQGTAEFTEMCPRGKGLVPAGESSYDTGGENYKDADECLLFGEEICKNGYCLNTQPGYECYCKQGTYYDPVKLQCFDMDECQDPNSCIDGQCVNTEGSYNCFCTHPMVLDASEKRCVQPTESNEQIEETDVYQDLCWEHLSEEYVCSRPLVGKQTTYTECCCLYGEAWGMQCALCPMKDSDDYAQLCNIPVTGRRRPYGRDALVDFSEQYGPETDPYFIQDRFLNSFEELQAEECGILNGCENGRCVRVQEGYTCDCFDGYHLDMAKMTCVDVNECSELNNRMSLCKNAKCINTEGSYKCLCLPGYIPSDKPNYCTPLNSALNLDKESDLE
T1 sequence (P04202 30-390 limits assumed, chain 2 of 2): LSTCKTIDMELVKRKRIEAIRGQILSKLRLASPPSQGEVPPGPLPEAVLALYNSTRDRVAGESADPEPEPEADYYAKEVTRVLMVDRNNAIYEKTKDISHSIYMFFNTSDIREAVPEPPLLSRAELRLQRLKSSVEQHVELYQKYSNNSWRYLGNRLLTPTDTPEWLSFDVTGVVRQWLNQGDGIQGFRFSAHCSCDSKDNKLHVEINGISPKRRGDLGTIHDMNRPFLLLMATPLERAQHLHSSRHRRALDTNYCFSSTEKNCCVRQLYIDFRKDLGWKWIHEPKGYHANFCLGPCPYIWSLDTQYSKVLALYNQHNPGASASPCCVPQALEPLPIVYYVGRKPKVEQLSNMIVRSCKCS
Experiment: Octet BLI, IgG captured
Exercise: state measured Kd for each of the binders provided.

| binder | reported_metric | observed_value |
| --- | --- | --- |
| SR-AB34 (antibody, IgG1, V domains shown, Cycle 3, lineage SR-AB22) VH: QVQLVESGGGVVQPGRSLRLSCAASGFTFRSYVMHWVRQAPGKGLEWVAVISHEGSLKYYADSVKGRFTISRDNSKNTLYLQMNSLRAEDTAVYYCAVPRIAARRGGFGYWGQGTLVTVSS VL: NFMLTQPHSVSESPGKTVTISCTRSSGNIDNNYVQWYQQRPGSSPTTVIYEDNQRPSGVPDRFSGSIDSSSNSASLTISGLKTEDEADYYCQSYDYDAQGVVFGGGTKLTVL | Kd | 0.417 nM |
| SR-AB63 (antibody, IgG1, V domains shown, Cycle 3, lineage SR-AB26) VH: QLQLQESGPGLVKPSETLSLTCTVSGGSIRSSSYYWGWIRQPPGKGLEWIGSISYSATTYYNPSLKSRVTISVDTSKNQFSLKLSSVTAADTAVYYCAGDPSYDSIAGMQVWGQGTTVTVSS VL: DIQLTQSPSSLSASVGDRVTITCRASQSISSYLNWYQQKPGKAPKLLIYAASNLQSGVPSRFSGSGSGTDFTLTISSLQPEDFATYYCQQSFDWPLTFGGGTKVEIK | Kd | 1.09 nM |
| SR-AB64 (antibody, IgG1, V domains shown, Cycle 3, lineage SR-AB26) VH: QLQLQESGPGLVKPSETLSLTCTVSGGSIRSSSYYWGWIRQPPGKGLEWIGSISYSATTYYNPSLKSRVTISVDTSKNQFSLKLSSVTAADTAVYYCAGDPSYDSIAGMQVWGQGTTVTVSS VL: DIQMTQSPSSLSASVGDRVTITCRASQSISYYLNWYQQKPGKAPKLLIYSASSRQSGVPSRFSGSGSGTDFTLTISSLQPEDFATYYCQQGFDFPLTFGGGTKVEIK | Kd | 1.03 nM |

Dear reader, for each entry below, please note its Kd.
1. SR-AB42 (antibody, IgG1, V domains shown, Cycle 3, lineage SR-AB23) VH: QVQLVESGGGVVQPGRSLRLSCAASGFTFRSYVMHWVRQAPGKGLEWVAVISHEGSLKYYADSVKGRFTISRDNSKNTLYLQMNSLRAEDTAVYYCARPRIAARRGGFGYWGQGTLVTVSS VL: NFMLTQPHSVSESPGKTVTISCTRSSGNIDNNYVQWYQQRPGSSPTTVIYEDNQRPSGVPDRFSGSIDSSSNSASLTISGLKTEDEADYYCQSYDYDTQGVVFGGGTKLTVL
2. SR-AB38 (antibody, IgG1, V domains shown, Cycle 3, lineage SR-AB22) VH: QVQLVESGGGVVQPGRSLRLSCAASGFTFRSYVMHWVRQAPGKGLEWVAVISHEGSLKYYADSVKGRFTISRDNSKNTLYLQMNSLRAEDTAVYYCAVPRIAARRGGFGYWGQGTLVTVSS VL: NFMLTQPHSVSESPGKTVTISCTRSSGSIDNNYVQWYQQRPGSSPTTVIYEDFIRPSGVPDRFSGSIDSSSNSASLTISGLKTEDEADYYCQSYDDDLQGVVFGGGTKLTVL
3. SR-AB40 (antibody, IgG1, V domains shown, Cycle 3, lineage SR-AB23) VH: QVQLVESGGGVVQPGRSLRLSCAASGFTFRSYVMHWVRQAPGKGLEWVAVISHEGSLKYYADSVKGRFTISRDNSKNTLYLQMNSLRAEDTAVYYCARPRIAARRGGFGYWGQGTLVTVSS VL: NFMLTQPHSVSESPGKTVTISCTRSSGNIDNNYVQWYQQRPGSSPTTVIYEDNQRPSGVPDRFSGSIDSSSNSASLTISGLKTEDEADYYCQSYDYSNQGVVFGGGTKLTVL

Result block:
0.359 nM
0.391 nM
1.08 nM
